Provide the recorded hGLP1R B-Arrestin2 Rel EC50 for the entries that follow.
Target: Pro-Link-tagged Human GLP-1R (human, UniProt P43220 24-463)
Assay: cell-based or functional assay
Express your answer in nM, writing the number without its unit.

Task item: Please give the measured hGLP1R B-Arrestin2 Rel EC50 for this binder: XXEGTFTSDYSIXLDEKAQXAFIEXLIAGGPSSGAPPPS (D-Tyr1, Aib2, αMeL13, K17 conjugated to (2-[2-(2-Amino-ethoxy)-ethoxy]-acetyl)2-(γ-Glu)-CO-(CH2)18-CO2H, Aib20, αMeY25, C-terminal amide (NH2)) [Example 381]
Reply: 15.5

Task item: Check XXEGTFTSDYSIXLDKKAQXAFIEXLIAGGPSSGAPPPS (D-Tyr1, Aib2, αMeL13, K17 conjugated to (2-[2-(2-Amino-ethoxy)-ethoxy]-acetyl)2-(γ-Glu)-CO-(CH2)18-CO2H, Aib20, αMeY25, C-terminal amide (NH2)) [Example 365] too.
Reply: 7.03

Task item: Another binder to look at: XXEGTFTSDYSIXLDXKAQXEFIXYLIEGGPSSGAPPPS (D-Tyr1, Aib2, αMeL13, Orn16, K17 conjugated to (2-[2-(2-Amino-ethoxy)-ethoxy]-acetyl)2-(γ-Glu)-CO-(CH2)18-CO2H, Aib20, D-Glu24, C-terminal amide (NH2)) [Example 355]
Reply: 363

Task item: Field entry: XXEGTFTSDYSIXLDXKAQXEFIEXLIEGGPSSGAPPPS (D-Tyr1, Aib2, αMeL13, Orn16, K17 conjugated to (2-[2-(2-Amino-ethoxy)-ethoxy]-acetyl)2-(γ-Glu)-CO-(CH2)18-CO2H, Aib20, αMeY25, C-terminal amide (NH2)) [Example 380]
Reply: 13.7

Task item: Another binder to look at: FXEGTFTSDYSIXLDKKAQXAFIEYLIEGGPSSGAPPPS (Aib2, αMeL13, K17 conjugated to (2-[2-(2-Amino-ethoxy)-ethoxy]-acetyl)2-(γ-Glu)-CO-(CH2)18-CO2H, Aib20, C-terminal amide (NH2)) [Example 327]
Reply: 3.79

Task item: Consider next the binder XXEGTFTSDYSIXLDXKAQXAFIEXLIAGGPSSGAPPPS (D-Tyr1, Aib2, αMeL13, Orn16, K17 conjugated to (2-[2-(2-Amino-ethoxy)-ethoxy]-acetyl)2-(γ-Glu)-CO-(CH2)16-CO2H, Aib20, αMeY25, C-terminal amide (NH2)) [Example 377] in the same way.
Reply: 5.32

Origin of the recorded values: patent US20220048967A1
